system: MCF-7; assay: MTT cancer cell proliferation assay, MCF-7; assay type: cell-based, human; details: Homo sapiens, MCF7, Table 1a; breast cancer; read-out: IC50 (μM) MCF-7
MEASURED_PARAMETER: IC50 (µM)

Solved entries:
compound="C=C1C(=O)[C@]23[C@H](O)[C@H]1CC[C@H]2[C@@]12CO[C@]3(O)[C@@H](O)[C@@H]1C(C)(C)Cc1sc(N)nc12 [CYD-5-41]" experimental_value=1.02
compound="C=C1C(=O)[C@]23[C@H](O)[C@H]1CC[C@H]2[C@@]12CO[C@]3(O)[C@@H](O)[C@@H]1C(C)(C)Cc1sc(NCCCC)nc12 [CYD-6-28]" experimental_value=0.59
compound="C=C1C(=O)[C@@]23C(CCC1[C@H]2O)[C@@]12COC3(O)[C@@H](O)C1C(C)(C)Cc1sc(NCCN3CCCCC3)nc12 (stereo in doubt) [CYD-6-20]" experimental_value=1
compound="C=CCNc1nc2c(s1)CC(C)(C)[C@H]1[C@H](O)[C@@]3(O)OC[C@@]21[C@@H]1CC[C@H]2C(=C)C(=O)[C@]13[C@@H]2O [CYD-6-18]" experimental_value=0.18
compound="C=C1C(=O)[C@@]23C(CC[C@H]1[C@H]2O)[C@@]12CO[C@]3(O)[C@@H](O)C1C(C)(C)Cc1sc(N3CCCCCC3)nc12 (some centres unmarked) [CYD-6-26-2]" experimental_value=1.15

1 = C=C1C(=O)[C@]23[C@H](O)[C@H]1CC[C@H]2[C@@]12CO[C@]3(O)[C@@H](O)[C@@H]1C(C)(C)Cc1sc(NC(=N)N)nc12 [CYD-6-29]
2 = C=C1C(=O)[C@]23[C@H](O)[C@H]1CC[C@H]2[C@@]12CO[C@]3(O)[C@@H](O)[C@@H]1C(C)(C)Cc1sc(NC)nc12 [CYD-5-54]
3 = C=C1C(=O)[C@]23[C@H](O)[C@H]1CC[C@H]2[C@@]12COC3(O)[C@@H](O)[C@@H]1C(C)(C)CC[C@@H]2O [Oridonin]
4 = C=C1C(=O)[C@]23[C@H](O)[C@H]1CC[C@H]2[C@@]12CO[C@]3(O)[C@@H](O)[C@@H]1C(C)(C)Cc1sc(NC(C)C)nc12 [CYD-6-30]
5 = C=C1C(=O)[C@@]23C(CC[C@H]1[C@H]2O)[C@@]12CO[C@]3(O)[C@@H](O)C1C(C)(C)Cc1sc(NC(C)=O)nc12 (some centres unmarked) [CYD-6-21]
Ask: Order the records, beginning with the lowest IC50 and ending with the highest. Present the labels in the sequence the task asks for.
Reply: 4, 2, 5, 1, 3
(4: 0.82 µM, 2: 1.28 µM, 5: 1.99 µM, 1: 3.43 µM, 3: 6.64 µM)

Source listed as patent US9725460B2.
